- Procedure summary: Counterscreen Assay for Inhibitors of the ERK Signaling Pathway using a Homogeneous Screening Assay
- Condition: AlphaScreen bead counterscreen in cell lysate, 5 h; series mostly up to 45.6 µM
Records with an inconclusive call do not appear. Activity calls are given as the source filed them. Calls follow the shape of the dose curve; as a rule, active = well fitted inhibition curve with a large enough effect; inconclusive = small, poorly fitted or top-dose-only effect; inactive = no such curve, though single readings can be large or run the other way.
Lab note: assign the record to one of label 1 for active, label 0 for inactive

COc1cc2ncnc(Nc3cccc(Cl)c3)c2cc1OC ... label 0
CCCN1C(=O)/C(=C2/C=Cc3ccccc3N2CC)SC1=S ... label 1
CC(=O)N1CCC(=NNc2nc3ccccc3s2)CC1 ... label 0
c1ccc(Oc2nc(NCc3ccco3)nc(NCc3ccco3)n2)cc1 ... label 0
c1ccc(-c2csc(-c3nc4ccccc4[nH]3)n2)cc1 ... label 0

Given O=C1c2ccccc2C(=O)c2c1cccc2N1CCCC1 , state the outcome it received in this test.
label 1

Given Cc1cccc(CNc2ncnc3ccc(-c4cccc(NS(C)(=O)=O)c4)cc23)c1 , state the outcome it received in this test.
label 0

Given O=c1cc(-c2ccc(O)cc2)oc2cccc(O)c12 , state the outcome it received in this test.
label 0

Given c1ccc(Nc2ncnc3ccc(-c4cccnc4)cc23)cc1 , state the outcome it received in this test.
label 0

Given COc1ccc(C2=Nn3c(nnc3-c3ccccc3OC)SC2)cc1OC , state the outcome it received in this test.
label 0

Given CCCNc1ncnc2sc(C)c(C)c12 , state the outcome it received in this test.
label 0

Given CN(C)c1cc2c(Nc3ccc4c(cnn4Cc4ccccc4)c3)ncnc2cn1 , state the outcome it received in this test.
label 0

Given Cc1sc2ncnc(Nc3ccccc3)c2c1C , state the outcome it received in this test.
label 0

Given COc1ccc(C(=O)c2ccc(Cl)c([N+](=O)[O-])c2)cc1 , state the outcome it received in this test.
label 0

Given C=C[C@]1(C)CC(=O)[C@@]2(O)[C@@]3(C)C(O)CCC(C)(C)C3C(O)C(OC(C)=O)[C@@]2(C)O1 (stereo partly specified) , state the outcome it received in this test.
label 0

Given CCOC(=O)Cc1csc(NC(=O)CSc2ncnc3c2cnn3-c2ccc(OC)cc2)n1 , state the outcome it received in this test.
label 0

Given COc1cc(C2CC(=O)c3c([nH]c(C(=O)OCCOC(C)C)c3C)C2)cc(OC)c1OC (stereo unspecified) , state the outcome it received in this test.
label 0

Given COc1ccc(-c2ccc(SCC(=O)N3CCCC3)nn2)cc1OC , state the outcome it received in this test.
label 0

Given COc1ccc(-c2n(CC(=O)OC3CC(C)CCC3C(C)C)c3ccccc3[n+]2C)cc1 (stereo unspecified) , state the outcome it received in this test.
label 0

Given O=C(Nc1nccs1)c1cc2sccc2n1Cc1ccc(F)cc1 , state the outcome it received in this test.
label 0

Given CS(=O)(=O)Nc1cccc(-c2ccc3ncnc(Nc4ccc(F)cc4)c3c2)c1 , state the outcome it received in this test.
label 0

###

- Procedure summary: Counterscreen Assay for Inhibitors of the ERK Signaling Pathway using a Homogeneous Screening Assay
- Condition: AlphaScreen bead counterscreen in cell lysate, 5 h; series mostly up to 45.6 µM
Results filed as inconclusive are left out. Active and inactive are the calls of the source. Calls follow the shape of the dose curve; as a rule, active = well fitted inhibition curve with a large enough effect; inconclusive = small, poorly fitted or top-dose-only effect; inactive = no such curve, though single readings can be large or run the other way.
Lab note: assign the record to one of true (1) = active, false (0) = inactive

COc1ccc(N=C2C(=Nc3ccc(OC)cc3)N(c3ccc(OC)cc3)C(=S)N2C)cc1 ... true (1)

Given Cn1nc(-c2ccc(Cl)cc2)nc2c(=O)n(C)c(=O)nc1-2 , state the outcome it received in this test.
false (0)

Given COc1ccc(CC(=O)Nc2cccc(-c3nnc(-c4ccc(C)cc4)o3)c2)cc1OC , state the outcome it received in this test.
false (0)

Given C/C(=N\Nc1nnc(-c2ccccc2)c(-c2ccccc2)n1)c1cccc([N+](=O)[O-])c1 , state the outcome it received in this test.
false (0)

Given CS(=O)(=O)CCNCc1nc(-c2ccc3ncnc(Nc4ccc(OCc5cccc(F)c5)c(Cl)c4)c3c2)cs1 , state the outcome it received in this test.
false (0)

Given Cc1cc(-c2ccccc2)n(-c2cc(N/N=C/c3ccccc3O)ncn2)n1 , state the outcome it received in this test.
false (0)
